Hello, the source for this data is PubChem BioAssay AID2060899, in case you need it.

Listed here: items and their measured viability, T/C.
tested on: 565726-208-R1-J5-PDC complex spheroids, growth inhibition; assay: Anticancer human tumor 565726-208-R1-J5-PDC patient-derived pancreatic adenocarcinoma cell line growth inhibition [RAS]; conditions: second compound 0.003 µM; first compound 0.01 µM; stronger effect = lower value

compound | viability, T/C [%]
CC(C)n1nc(-c2ccc3oc(N)nc3c2)c2c(N)ncnc21 + CCn1c(-c2cc(N3CCN(C)CC3)cnc2C(C)OC)c2c3cc(ccc31)-c1csc(n1)CC(NC(=O)C1CC1C)C(=O)N1CCCC(N1)C(=O)OCC(C)(C)C2 | 28.4
C=CC(=O)Nc1cc(Nc2nccc(-c3cn(C)c4ccccc34)n2)c(OC)cc1N(C)CCN(C)C + CCn1c(-c2cc(N3CCN(C)CC3)cnc2C(C)OC)c2c3cc(ccc31)-c1csc(n1)CC(NC(=O)C1CC1C)C(=O)N1CCCC(N1)C(=O)OCC(C)(C)C2 | 44.3
CCN1CCN(Cc2ccc(Nc3ncc(F)c(-c4cc(F)c5nc(C)n(C(C)C)c5c4)n3)nc2)CC1 + CCn1c(-c2cccnc2C(C)OC)c2c3cc(ccc31)N1CCOC(CC(NC(=O)C(C(C)C)N(C)C(=O)C3(F)CCN(C(=O)C#CC(C)(C)N(C)C)CC3)C(=O)N3CCCC(N3)C(=O)OCC(C)(C)C2)C1 | 96
C=CC(=O)Nc1cc(Nc2nccc(-c3cn(C)c4ccccc34)n2)c(OC)cc1N(C)CCN(C)C + CCn1c(-c2cccnc2C(C)OC)c2c3cc(ccc31)N1CCOC(CC(NC(=O)C(C(C)C)N(C)C(=O)C3(F)CCN(C(=O)C#CC(C)(C)N(C)C)CC3)C(=O)N3CCCC(N3)C(=O)OCC(C)(C)C2)C1 | 91

* * *

Listed here: items and their measured viability, T/C.
system: 565726-208-R1-J5-PDC complex spheroids, growth inhibition; assay: Anticancer human tumor 565726-208-R1-J5-PDC cell line growth inhibition [RAS]; details: second compound 0.003 µM; first compound 3.16 µM; stronger effect = lower value;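 also: spheroids exposed to compounds for seven days before readout; 100% = DMSO vehicle control viability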

compound | system_tested | result_unit | viability, T/C
Cc1nc(N2CCC3(CC2)COC(C)C3N)c(CO)nc1Sc1ccnc(N)c1Cl (stereo not drawn) + CCn1c(-c2cc(N3CCN(C)CC3)cnc2C(C)OC)c2c3cc(ccc31)-c1csc(n1)CC(NC(=O)C1CC1C)C(=O)N1CCCC(N1)C(=O)OCC(C)(C)C2 | 565726-208-R1-J5-PDC complex spheroids, growth inhibition | % | 29.1
Cc1nc(N2CCC3(CC2)COC(C)C3N)c(CO)nc1Sc1ccnc(N)c1Cl (stereo not drawn) + CCn1c(-c2cccnc2C(C)OC)c2c3cc(ccc31)N1CCOC(CC(NC(=O)C(C(C)C)N(C)C(=O)C3(F)CCN(C(=O)C#CC(C)(C)N(C)C)CC3)C(=O)N3CCCC(N3)C(=O)OCC(C)(C)C2)C1 | 565726-208-R1-J5-PDC complex spheroids, growth inhibition | % | 71
CC(=O)OC12COC1CC(O)C1(C)C(=O)C(O)C3=C(C)C(OC(=O)C(O)C(NC(=O)OC(C)(C)C)c4ccccc4)CC(O)(C(OC(=O)c4ccccc4)C21)C3(C)C (stereo not drawn) + CCn1c(-c2cccnc2C(C)OC)c2c3cc(ccc31)N1CCOC(CC(NC(=O)C(C(C)C)N(C)C(=O)C3(F)CCN(C(=O)C#CC(C)(C)N(C)C)CC3)C(=O)N3CCCC(N3)C(=O)OCC(C)(C)C2)C1 | 565726-208-R1-J5-PDC complex spheroids, growth inhibition | % | 19.8
NC1c2ccccc2OC12CCN(c1cnc3c(N4CCCc5ncccc54)n[nH]c3n1)CC2 (stereo not drawn) + CCn1c(-c2cccnc2C(C)OC)c2c3cc(ccc31)N1CCOC(CC(NC(=O)C(C(C)C)N(C)C(=O)C3(F)CCN(C(=O)C#CC(C)(C)N(C)C)CC3)C(=O)N3CCCC(N3)C(=O)OCC(C)(C)C2)C1 | 565726-208-R1-J5-PDC complex spheroids, growth inhibition | % | 62.9
CC1(O)CCCC1n1c(=O)c(C(F)F)cc2cnc(NC3CCN(S(C)(=O)=O)CC3)nc21 (stereo not drawn) + CCn1c(-c2cccnc2C(C)OC)c2c3cc(ccc31)N1CCOC(CC(NC(=O)C(C(C)C)N(C)C(=O)C3(F)CCN(C(=O)C#CC(C)(C)N(C)C)CC3)C(=O)N3CCCC(N3)C(=O)OCC(C)(C)C2)C1 | 565726-208-R1-J5-PDC complex spheroids, growth inhibition | % | 47.5
C[C@@H](NC(=O)c1ncnc(N)c1Cl)c1ncc(C(=O)Nc2cc(C(F)(F)F)c(Cl)cn2)s1 + CCn1c(-c2cccnc2C(C)OC)c2c3cc(ccc31)N1CCOC(CC(NC(=O)C(C(C)C)N(C)C(=O)C3(F)CCN(C(=O)C#CC(C)(C)N(C)C)CC3)C(=O)N3CCCC(N3)C(=O)OCC(C)(C)C2)C1 | 565726-208-R1-J5-PDC complex spheroids, growth inhibition | % | 98
C[C@@H](NC(=O)c1ncnc(N)c1Cl)c1ncc(C(=O)Nc2cc(C(F)(F)F)c(Cl)cn2)s1 + CCn1c(-c2cc(N3CCN(C)CC3)cnc2C(C)OC)c2c3cc(ccc31)-c1csc(n1)CC(NC(=O)C1CC1C)C(=O)N1CCCC(N1)C(=O)OCC(C)(C)C2 | 565726-208-R1-J5-PDC complex spheroids, growth inhibition | % | 56.8
CC(=O)OC12COC1CC(O)C1(C)C(=O)C(O)C3=C(C)C(OC(=O)C(O)C(NC(=O)OC(C)(C)C)c4ccccc4)CC(O)(C(OC(=O)c4ccccc4)C21)C3(C)C (stereo not drawn) + CCn1c(-c2cc(N3CCN(C)CC3)cnc2C(C)OC)c2c3cc(ccc31)-c1csc(n1)CC(NC(=O)C1CC1C)C(=O)N1CCCC(N1)C(=O)OCC(C)(C)C2 | 565726-208-R1-J5-PDC complex spheroids, growth inhibition | % | 18.7

* * *

test system: 565726-208-R1-J5-PDC complex spheroids, growth inhibition; assay: Anticancer human tumor 565726-208-R1-J5-PDC cell line growth inhibition [RAS]; conditions: second compound 0.0949 µM; first compound 1 µM; stronger effect = lower value;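 also: spheroids exposed to compounds for seven days before readout; 100% = DMSO vehicle control viability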
Listed here: items and their measured viability, T/C.
experimental_endpoint: viability, T/C (%)

compound | experimental_endpoint | value_reported
C=CC(=O)Nc1cc(Nc2nccc(-c3cn(C)c4ccccc34)n2)c(OC)cc1N(C)CCN(C)C + CCn1c(-c2cc(N3CCN(C)CC3)cnc2C(C)OC)c2c3cc(ccc31)-c1csc(n1)CC(NC(=O)C1CC1C)C(=O)N1CCCC(N1)C(=O)OCC(C)(C)C2 | viability, T/C | 14.7
Cc1nc(N2CCC3(CC2)COC(C)C3N)c(CO)nc1Sc1ccnc(N)c1Cl (centres undefined) + CCn1c(-c2cccnc2C(C)OC)c2c3cc(ccc31)N1CCOC(CC(NC(=O)C(C(C)C)N(C)C(=O)C3(F)CCN(C(=O)C#CC(C)(C)N(C)C)CC3)C(=O)N3CCCC(N3)C(=O)OCC(C)(C)C2)C1 | viability, T/C | 69.8
C[C@@H](NC(=O)c1ncnc(N)c1Cl)c1ncc(C(=O)Nc2cc(C(F)(F)F)c(Cl)cn2)s1 + CCn1c(-c2cc(N3CCN(C)CC3)cnc2C(C)OC)c2c3cc(ccc31)-c1csc(n1)CC(NC(=O)C1CC1C)C(=O)N1CCCC(N1)C(=O)OCC(C)(C)C2 | viability, T/C | 32.5
CC1(O)CCCC1n1c(=O)c(C(F)F)cc2cnc(NC3CCN(S(C)(=O)=O)CC3)nc21 (centres undefined) + CCn1c(-c2cccnc2C(C)OC)c2c3cc(ccc31)N1CCOC(CC(NC(=O)C(C(C)C)N(C)C(=O)C3(F)CCN(C(=O)C#CC(C)(C)N(C)C)CC3)C(=O)N3CCCC(N3)C(=O)OCC(C)(C)C2)C1 | viability, T/C | 53
CC1(O)CCCC1n1c(=O)c(C(F)F)cc2cnc(NC3CCN(S(C)(=O)=O)CC3)nc21 (centres undefined) + CCn1c(-c2cc(N3CCN(C)CC3)cnc2C(C)OC)c2c3cc(ccc31)-c1csc(n1)CC(NC(=O)C1CC1C)C(=O)N1CCCC(N1)C(=O)OCC(C)(C)C2 | viability, T/C | 24.2
Nc1ccn(C2OC(CO)C(O)C2(F)F)c(=O)n1 (centres undefined) + CCn1c(-c2cccnc2C(C)OC)c2c3cc(ccc31)N1CCOC(CC(NC(=O)C(C(C)C)N(C)C(=O)C3(F)CCN(C(=O)C#CC(C)(C)N(C)C)CC3)C(=O)N3CCCC(N3)C(=O)OCC(C)(C)C2)C1 | viability, T/C | 24.4
CC(Nc1ccc2c(c1)OCCn1cc(N3C(=O)OCC3C(F)F)nc1-2)C(N)=O (centres undefined) + CCn1c(-c2cccnc2C(C)OC)c2c3cc(ccc31)N1CCOC(CC(NC(=O)C(C(C)C)N(C)C(=O)C3(F)CCN(C(=O)C#CC(C)(C)N(C)C)CC3)C(=O)N3CCCC(N3)C(=O)OCC(C)(C)C2)C1 | viability, T/C | 65.9
CC(Nc1ccc2c(c1)OCCn1cc(N3C(=O)OCC3C(F)F)nc1-2)C(N)=O (centres undefined) + CCn1c(-c2cc(N3CCN(C)CC3)cnc2C(C)OC)c2c3cc(ccc31)-c1csc(n1)CC(NC(=O)C1CC1C)C(=O)N1CCCC(N1)C(=O)OCC(C)(C)C2 | viability, T/C | 18.5
CC(=O)OC12COC1CC(O)C1(C)C(=O)C(O)C3=C(C)C(OC(=O)C(O)C(NC(=O)OC(C)(C)C)c4ccccc4)CC(O)(C(OC(=O)c4ccccc4)C21)C3(C)C (centres undefined) + CCn1c(-c2cc(N3CCN(C)CC3)cnc2C(C)OC)c2c3cc(ccc31)-c1csc(n1)CC(NC(=O)C1CC1C)C(=O)N1CCCC(N1)C(=O)OCC(C)(C)C2 | viability, T/C | 12.5
